Observed IC50 values for FL hMALT1 enzyme (Homo sapiens, UniProt Q9UDY8) are listed in what follows.
REPORTED METRIC: IC50 (nM)

| COMPOUND | VALUE UNITS | VALUE MEASURED |
| --- | --- | --- |
| CN(C(=O)C1CCS(=O)(=O)CC1)[C@@H](c1ccc(NC2Cc3ccccc3C2(C)C)nc1)C(F)(F)F (single isomer, unassigned) | nM | 39 |

[a] CC1c2ccccc2CC1Nc1ccc([C@H](N(C)C(=O)C2CCS(=O)(=O)CC2)C(F)(F)F)cc1 (stereo in doubt)
[b] CC(=O)NC12CC(C(=O)N(C)[C@@H](c3ccc(N[C@H]4Cc5ccccc5C4(C)C)cn3)C(F)(F)F)(C1)C2
[c] COC1c2ccccc2CC1Nc1ccc([C@H](N(C)C(=O)C2CCS(=O)(=O)CC2)C(F)(F)F)cc1 (stereo in doubt)
Task item: // ranking: key=IC50, reverse=True Please respond with the labels ordered as the question requires.
Reply: c, b, a

Values compiled from patent US20260184687A1.
